# testDescription: Binding affinity for DNA assessed as thermal melting temperature
The threshold is 20 °C. Values of ΔTm beneath it are tagged Satisfied; values meeting or exceeding it are tagged Not satisfied.

- smi: "c1cc2c(cc1NC1=NCCN1)Cc1cc(NC3=NCCN3)ccc1-2"
  class: "Not satisfied"

Report whether reported ΔTm is lower than 20 °C (strictly) for "CCOC(CNC(=N)Nc1ccc(Cc2ccc(NC(=N)NCC(OCC)OCC)cc2)cc1)OCC"
Satisfied

How about this compound: "N=C(N)Nc1ccc(S(=O)(=O)c2ccc(NC(=N)N)cc2)cc1"
Satisfied

Try this compound next: "N=C(N)Nc1ccc(Nc2ccc(NC(=N)N)cc2)cc1"
Not satisfied

Also check "c1cc(N2CCN(c3ccc(NC4=NCCN4)cc3)CC2)ccc1NC1=NCCN1"
Not satisfied

Proceed to "c1cc(NC2=NCCN2)ccc1Cc1ccc(NC2=NCCN2)cc1"
Satisfied

Same read-out for "O=S(=O)(c1ccc(NC2=NCCN2)cc1)c1ccc(NC2=NCCN2)cc1" ?
Satisfied

And then "N=C(N)Nc1ccc(C(=O)c2ccc(NC(=N)N)cc2)cc1" , what is it?
Not satisfied

Quick one: "CCOC(CNC(=N)Nc1ccc(Nc2ccc(NC(=N)NCC(OCC)OCC)cc2)cc1)OCC"
Satisfied

Where do these numbers come from? They come from ChEMBL document CHEMBL1141653.
